Test system: human M2 macrophages
Assay: Inhibition of human M2 macrophage activity, hCCL22 in culture supernatant by ELISA
Assay type: cell-based
Conditions: hCCL22 secretion, THP-1 derived M2-like macrophages, compound present during 72 hours of differentiation
Protocol: To obtain human M2 macrophages, human monocytes (THP-1 monocyte, CD4 expression) were stabilized in a 96-well plate for 24 hours and then incubated in culture media containing 100 ng/mL phorbal 12-myristate-13-acetate (PMA; Sigma, P8139) for 24 hours to differentiate into M0 macrophages (macrophage-like phenotype). It was confirmed that differentiated M0 macrophages had reduced CD4 expression and expressed CD11b. […]
pEC50: −log10 of the molar value.
assayReadout: pEC50

Worked examples, 2 molecules total:
CC1(C)Oc2cc(N3CCCC3)ccc2C2C1=CCn1c(=O)n(-c3ccc(C(=O)O)cc3)c(=O)n12 (centres unmarked) [Example 44]	5.02
CC(=O)c1ccc(-n2c(=O)n3n(c2=O)C2C(=CC3)C(C)(C)Oc3cc(OP(=O)(O)O)ccc32)cc1 (centres unmarked) [Example 70, phosphate]	5.03

a. CCn1nc(C)c(-c2ccc3c(c2)OC(C)(C)C2=CCn4c(=O)n(-c5ccc(C(C)=O)cc5)c(=O)n4C23)c1C (centres unmarked) [Example 40]
b. CC1(C)Oc2cc(O)ccc2C2C1=CCn1c(=O)n(-c3ccc(C(=O)N4CCOCC4)cc3)c(=O)n12 (centres unmarked) [Example 53]
Which value of pEC50 is numerically greater: that of a or that of b ? Lab log: write the label of the selected item as the result.
b
(b: 5.35, a: 4.27)

I. CC1(C)Oc2cc(NC3COC3)ccc2C2C1=CCn1c(=O)n(-c3ccc(F)cc3)c(=O)n12 (centres unmarked) [Example 35]
II. CNc1c(Cl)cc2c(c1Cl)OC(C)(C)C1=CCn3c(=O)n(-c4ccc(C(C)=O)cc4)c(=O)n3C12 (centres unmarked) [Example 36]
Name the one with the greater pEC50 value, either I or II as given. Your answer should be the label attached to the chosen record.
I
(I: 5.32, II: 4.97)

P. CC(=O)c1ccc(-n2c(=O)n3n(c2=O)C2C(=CC3)C(C)(C)Oc3cc(N4CCC4)ccc32)cc1 (centres unmarked) [Example 141]
Q. CC(=O)c1ccc(-n2c(=O)n3n(c2=O)C2C(=CC3)C(C)(C)Oc3cc(-c4nc(C)sc4C)ccc32)cc1 (centres unmarked) [Example 39]
R. CC(=O)c1ccc(-n2c(=O)n3n(c2=O)C2C(=CC3)C(C)(C)Oc3cc(N4CCN(S(C)(=O)=O)CC4)ccc32)cc1 (centres unmarked) [Example 52]
Put the entries in order of pEC50, starting with the largest number. Give the labels in the order requested.
P, R, Q
(P: 5.14, R: 4.58, Q: 4.14)

src = patent US20250042911A1
